Each item that follows carries a reported IC50.
- system under test: UniProtKB P54760
- Sequence (P54760 16-987): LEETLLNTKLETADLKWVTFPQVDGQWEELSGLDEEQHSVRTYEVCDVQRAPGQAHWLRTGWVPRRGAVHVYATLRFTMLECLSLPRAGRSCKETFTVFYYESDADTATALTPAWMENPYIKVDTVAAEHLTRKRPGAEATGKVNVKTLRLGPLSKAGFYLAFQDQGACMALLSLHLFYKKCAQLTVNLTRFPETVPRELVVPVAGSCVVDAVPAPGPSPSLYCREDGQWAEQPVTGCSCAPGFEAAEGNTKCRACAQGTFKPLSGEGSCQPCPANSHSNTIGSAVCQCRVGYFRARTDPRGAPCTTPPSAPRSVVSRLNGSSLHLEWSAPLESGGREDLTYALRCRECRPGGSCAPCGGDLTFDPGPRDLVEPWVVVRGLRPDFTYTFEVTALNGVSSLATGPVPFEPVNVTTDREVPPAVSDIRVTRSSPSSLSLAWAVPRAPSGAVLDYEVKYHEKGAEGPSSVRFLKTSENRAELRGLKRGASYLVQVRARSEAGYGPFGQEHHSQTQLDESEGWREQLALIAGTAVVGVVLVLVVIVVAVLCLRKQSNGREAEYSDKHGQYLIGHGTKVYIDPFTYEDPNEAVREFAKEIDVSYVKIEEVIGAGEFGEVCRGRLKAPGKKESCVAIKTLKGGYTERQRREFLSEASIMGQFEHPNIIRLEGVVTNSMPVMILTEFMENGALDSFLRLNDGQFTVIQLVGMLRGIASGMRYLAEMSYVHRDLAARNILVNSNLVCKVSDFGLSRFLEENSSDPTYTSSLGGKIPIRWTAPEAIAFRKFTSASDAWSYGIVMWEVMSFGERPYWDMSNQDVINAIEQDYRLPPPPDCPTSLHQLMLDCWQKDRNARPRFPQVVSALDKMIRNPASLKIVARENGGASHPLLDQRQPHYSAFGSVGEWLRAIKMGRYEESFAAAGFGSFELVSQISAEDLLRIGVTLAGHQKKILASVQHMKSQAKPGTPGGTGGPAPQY

Some solved cases for reference:
• S=C(Nc1ccc(-c2cccnc2)cc1)Nc1ccc(Cl)c(Cl)c1 = > 500 nM
• O=C(Nc1ccc(-c2ccc3c(=O)[nH]cnc3c2)cc1)Nc1ccccc1F = 13.9 nM
• O=C(Nc1ccc(-c2ccc3c(=O)[nH]cnc3c2)cc1)Nc1ccc(C(F)(F)F)cc1 = > 500 nM
• O=C(Nc1ccc(F)cc1)Nc1ccc(-c2ccc3c(=O)[nH]cnc3c2)cc1 = > 500 nM

(Q) Fill blank: measured IC50 of the molecule `Fc1ccc(NC(=S)Nc2ccc(-c3cccnc3)cc2)cc1F` is ____.
(A) 10 nM

(Q) IC50 lookup needed for `FC(F)(F)Oc1cc(Br)ccc1NC(=S)Nc1ccc(-c2cccnc2)cc1` , thanks.
(A) > 500 nM

(Q) Any idea what its IC50 is? The molecule is `FC(F)(F)c1cc(NC(=S)Nc2ccc(-c3cccnc3)cc2)cc(C(F)(F)F)c1`
(A) > 500 nM

(Q) Bench note: what IC50 did `S=C(Nc1ccc(-c2cccnc2)cc1)Nc1ccc(Cl)cc1Cl` show?
(A) 3.86 nM

(Q) # input molecule: `CC(C)c1cccc(NC(=O)Nc2ccc(-c3ccc4c(=O)[nH]cnc4c3)cc2)c1` ; wanted: its IC50
(A) > 500 nM
